Where a name gives a salt, the structure may show the parent alone.
Consider the following MIC values measured on Prot. rettgeri M 1771.
Give bare numbers, in µg/mL.

Reference set (3 entries):
molecule | attribute.measured | observed.value
Cc1c(F)c(N2CC[C@H](C(C)(C)N)C2)cc2c1c(=O)c(C(=O)O)cn2-c1ccc(F)cc1F | MIC | 0.4
CNC(C)(C)[C@@H]1CCN(c2c(F)cc3c(=O)c(C(=O)O)cn(C4CC4)c3c2Cl)C1 [Example 6, monohydrochloride] | MIC | 0.4
CC(C)(N)[C@@H]1CCN(c2cc3c(c(N)c2F)c(=O)c(C(=O)O)cn3C2CC2)C1 | MIC | 0.8

Continue with the next molecule.
Record `CC(C)(N)[C@H]1CCN(c2nc3c(cc2F)c(=O)c(C(=O)O)cn3C2CC2)C1.Cl` , field MIC: 0.8
